Molecular target: T1, recombinant human CD300LB overexpressed on Jurkat cells (human, UniProt A8K4G0 18-201)
T1 construct: also called huCD300LB; huCD300LB-expressing Jurkat cells
T1 sequence: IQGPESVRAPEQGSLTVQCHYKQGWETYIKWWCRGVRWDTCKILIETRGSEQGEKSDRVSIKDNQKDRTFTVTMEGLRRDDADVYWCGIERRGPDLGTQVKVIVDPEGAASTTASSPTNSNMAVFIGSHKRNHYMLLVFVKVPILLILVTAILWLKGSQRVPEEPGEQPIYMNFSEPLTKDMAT
Assay: flow cytometry on Jurkat cells overexpressing huCD300LB, apparent KD (Drake & Klakamp fit)
pKd: −log10 of the molar value.
observation.type: pKd

>>> recorded_result("anti-CD300LB antibody CD-02 (antibody, V domains shown) VH: QVQLQQPGAELVRPGSSVKLSCQASGYTFTNYWMHWVRQRPIQGLEWIGNIDPSDSETHYNQKFKDRATLTVDKSSSTAYMQLSSLTSEDSAVYYCARSGVYDDEGGDYWGQGTTLTVSS VL: ENVLTQSPAIMSASPGEKVTMTCSASSSVSYIHWYQQKSSTSPKLWIYDTSKLASGVPGRFSGSGSGNSYSLTISSMETEDVATYYCFQGSGYPLTFGAGTKLELK")
7.19
>>> recorded_result("anti-CD300LB antibody CD-01 (antibody, V domains shown) VH: RVQLQQSGAELVRPGASVTLSCKASGFTFTDFEMHWVKKTPVHGLEWIGAIDPESGNTAYNQKFRGKATLTADKSSSTAYMELRYLTSEDSAVYYCTPLISGADYWGQGTTLTVSS VL: DVVMTQSPLSLPVSLGDQASISCRSSQSLVHSDGNTYLYWYLQKPGQSPKLLIYKVSNRFSGVPDRFSGSGSGTDFTFKISRVGAEDLGVYFCSQSTHVPWTFGGGTKLEII")
7.57
